- MEASUREMENT_DESCRIPTION: qHTS to identify inhibitors of the type 1 interferon - major histocompatibility complex class I in skeletal muscle: primary screen against the NCATS LOPAC collection (AID 1347405);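 further: human myoblasts with HiBiT tag on endogenous HLA-B stimulated by IFN-beta; lytic HiBiT luminescence reporting HLA-B protein level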
- CONDITION: iHSKM muscle cells, IFN-b-induced MHC-I HiBiT luminescence, 24 h; series mostly up to 45.9 µM
Records with an inconclusive call do not appear. Activity calls are given as the source filed them. The call rests on the fitted dose curve; in most records, active means well fitted inhibition curve with a large enough effect; inconclusive means small, poorly fitted or top-dose-only effect; inactive means flat fitted curve, though single readings scatter.
RECORDED_METRIC: outcome

Study these solved cases before continuing.
* Cc1ncsc1CCCl | inactive
* CC(NC(C)(C)C)C(=O)c1cccc(Cl)c1 (stereo not given) | inactive
* CN1C(=O)CCS(=O)(=O)C1c1ccc(Cl)cc1 (stereo not given) | inactive
* O=c1[nH]oc2c1CCNC2 | inactive
* CCCCCN(C)CCC(O)(P(=O)(O)O)P(=O)(O)O | inactive

Task: Reported outcome, molecule NCCc1ccc(O)cc1 : ____
Result: inactive

Task: Follow-up item: CC(C)(C)NCC(O)c1ccccc1Cl (stereo not given)
Result: inactive

Task: Follow-up item: COc1ccc2c(c1OC)C(=O)O[C@H]2[C@@H]1c2cc3c(cc2CCN1C)OCO3
Result: inactive

Task: Follow-up item: O=C(CCCN1CCC2(CC1)C(=O)NCN2c1ccccc1)c1ccc(F)cc1
Result: inactive

Task: Follow-up item: O=P1(N(CCCl)CCCl)NCCCO1 (stereo not given)
Result: inactive

###

- MEASUREMENT_DESCRIPTION: qHTS of pediatric cancer cell lines to identify multiple opportunities for drug repurposing: Primary screen for DAOY cells (AID 1347090); further: nearly all actives have a fitted effect of over 55% in size
- CONDITION: DAOY medulloblastoma viability, CellTiter-Glo luminescence, 48 h; series mostly up to 46 µM
Results filed as inconclusive are left out. Activity calls are given as the source filed them. Calls follow the shape of the dose curve; as a rule, active = well fitted cell-killing curve with a large enough effect; inconclusive = small, poorly fitted or top-dose-only effect; inactive = flat fitted curve, though single readings scatter.
RECORDED_METRIC: outcome

• CC(NC(C)(C)C)C(=O)c1cccc(Cl)c1 (stereo unspecified) = inactive
• CN1CCC(O)(c2ccc(F)cc2)C(C(=O)c2ccc(F)cc2)C1 (stereo unspecified) = inactive
• COc1cc(CC(C)N)cc(OC)c1OC (stereo unspecified) = inactive
• O=c1oc2ccccc2c(O)c1Cc1c(O)c2ccccc2oc1=O = inactive
• CN1C(=O)COc2c(C(=O)NC3CN4CCC3CC4)cc(Cl)cc21 (stereo unspecified) = inactive

Task: Reported outcome, compound COC1CC(=C(c2cccs2)c2cccs2)C[N+](C)(C)C1 (stereo unspecified) : ____
Result: inactive

###

- MEASUREMENT_DESCRIPTION: Quantitative High-Throughput drug screen in 47 multiple myeloma cell lines against the NCATS MIPE library collection: MM1R_ATCC cell viability assay (AID 1918981); further: nearly all actives have a fitted effect of over 35% in size
- CONDITION: MM1R multiple myeloma cells, CellTiter-Glo viability, 48 h; series mostly up to 45.8 µM
Inconclusive results are not listed. Calls of active or inactive are those of the source. Calls follow the shape of the dose curve; as a rule, active = well fitted cell-killing curve with a large enough effect; inconclusive = small, poorly fitted or top-dose-only effect, or effect the other way; inactive = no such curve, though single readings can be large or run the other way.
Bench note: report the call from true (active), false (inactive)

Task: Hi, sorry to bother you, what did the test record for CC(C)C[C@H](CN)CC(=O)O ?
Result: false

Task: Follow-up item: CN1C(=O)COc2c(C(=O)NC3CN4CCC3CC4)cc(Cl)cc21 (stereo not given)
Result: false

Task: Follow-up item: CC(C)c1cccc(C(C)C)c1O
Result: false

Task: Follow-up item: C[C@](O)(CS(=O)(=O)c1ccc(F)cc1)C(=O)Nc1ccc(C#N)c(C(F)(F)F)c1
Result: true

Task: Follow-up item: O=C(O)CCCc1ccc(N(CCCl)CCCl)cc1
Result: true

###

- TARGET: Peptidyl-prolyl cis-trans isomerase NIMA-interacting 1 (Homo sapiens)
- MEASUREMENT_DESCRIPTION: qHTS Validation Assay to Find Inhibitors of Pin1 (AID 504536)
- CONDITION: Pin1 fluorescence polarization peptide binding assay; series mostly up to 57.5 µM
- Source text: NIH Molecular Libraries Probe Production Network [MLPCN] NIH Chemical Genomics Center [NCGC] The unique chemical properties of Pro allow for the adoption of two completely distinct amide bond conformations (cis and trans). […] The goal of this screen is to find small-molecule inhibitors of Pin1 using a fluorescence polarization competition assay. […] Concentration-response curves were fitted to the signals arising from the resulting fluorescence polarization. […]
Results filed as inconclusive are left out. Calls of active or inactive are those of the source. The call rests on the fitted dose curve; in most records, active means well fitted inhibition curve with a large enough effect in the polarisation, with a control signal flat (not every such curve was filed as active); inconclusive means small, poorly fitted or top-dose-only effect, or effect the other way; inactive means flat fitted curve, though single readings scatter; the % refers to the polarisation.
RECORDED_METRIC: outcome

Study these solved cases before continuing.
- CC(C)c1cccc(C(C)C)c1O: inactive
- CC(C)(C)NCC(O)c1ccccc1Cl (stereo not drawn): inactive
- NCCc1ccc(O)cc1: inactive
- O=P1(N(CCCl)CCCl)NCCCO1 (stereo not drawn): inactive
- Cc1ncsc1CCCl: inactive

Task: Reported outcome, compound O=C(CCCN1CCC2(CC1)C(=O)NCN2c1ccccc1)c1ccc(F)cc1 : ____
Result: inactive

Task: Follow-up item: O=C(O)CCCc1ccc(N(CCCl)CCCl)cc1
Result: inactive

Task: Follow-up item: CC(C)N(CCC(C(N)=O)(c1ccccc1)c1ccccn1)C(C)C (stereo not drawn)
Result: inactive

###

- Test system: SC27B
- MEASUREMENT_DESCRIPTION: qHTS profiling for inhibitors of Plasmodium falciparum proliferation (AID 504749); further: nearly all actives have a fitted effect of over 60% in size
- CONDITION: P. falciparum in erythrocytes, SYBR Green DNA, 72 h; series mostly up to 28.7 µM
Results filed as inconclusive are left out. Active and inactive are the calls of the source. Calls come from the whole dose curve; as a rule, active = well fitted inhibition curve with a large enough effect; inconclusive = small, poorly fitted or top-dose-only effect; inactive = flat fitted curve, though single readings scatter.
Bench note: report the call from active, inactive

Task: Hi, sorry to bother you, what did the test record for O=C1Nc2ccc(Cl)cc2C(c2ccccc2)=NC1O (centres undefined) ?
Result: inactive

Task: Follow-up item: NCCc1ccc(O)cc1
Result: inactive

Task: Follow-up item: Nc1nc(N)nc(NC2CC2)n1
Result: inactive

Task: Follow-up item: COP(=S)(OC)SCN1C(=O)c2ccccc2C1=O
Result: inactive

Task: Follow-up item: CN1C(=O)C(O)N=C(c2ccccc2)c2cc(Cl)ccc21 (centres undefined)
Result: inactive

Task: Follow-up item: Nc1ccc([As](=O)(O)O)cc1
Result: inactive

Task: Follow-up item: Nc1ccccc1C(=O)O
Result: inactive

Task: Follow-up item: CCCCCCCCCC(=O)O[C@H]1CC[C@H]2[C@@H]3CCC4=CC(=O)CC[C@@H]4[C@H]3CC[C@]12C
Result: inactive

Task: Follow-up item: Clc1ccc(C(c2ccc(Cl)cc2)C(Cl)(Cl)Cl)cc1
Result: inactive

Task: Follow-up item: NC(=O)CS(=O)C(c1ccccc1)c1ccccc1 (centres undefined)
Result: inactive

Task: Follow-up item: C=CCN1C[C@H](C)N([C@H](c2ccc(C(=O)N(CC)CC)cc2)c2cccc(OC)c2)C[C@H]1C
Result: inactive

Task: Follow-up item: COc1c2c(cc3c1OCO3)CCN(C)C2
Result: inactive

Task: Follow-up item: COC(=O)C(c1ccccc1)C1CCCCN1 (centres undefined)
Result: inactive

Task: Follow-up item: C[C@]12CC[C@@H]3c4ccc(OC(=O)N(CCCl)CCCl)cc4CC[C@H]3[C@@H]1CC[C@@H]2O
Result: inactive

Task: Follow-up item: CCC(C)(C)c1ccc(O)cc1
Result: inactive

Task: Follow-up item: NC(=O)c1cc([N+](=O)[O-])cc([N+](=O)[O-])c1
Result: inactive

Task: Follow-up item: CCCC(C)(COC(N)=O)COC(N)=O
Result: inactive

Task: Follow-up item: C[C@](O)(CS(=O)(=O)c1ccc(F)cc1)C(=O)Nc1ccc(C#N)c(C(F)(F)F)c1
Result: inactive

Task: Follow-up item: O=c1[nH]oc2c1CCNC2
Result: inactive

Task: Follow-up item: O=C(Nc1ccc(Br)cc1)c1cc(Br)cc(Br)c1O
Result: inactive

Task: Follow-up item: COP(=S)(OC)Oc1ccc(SC)c(C)c1
Result: inactive

Task: Follow-up item: CN1C[C@H](C(=O)N[C@]2(C)O[C@@]3(O)[C@@H]4CCCN4C(=O)[C@H](Cc4ccccc4)N3C2=O)C=C2c3cccc4[nH]cc(c34)C[C@H]21
Result: active

Task: Follow-up item: CN1C(=O)NC(=O)C(C)(C2=CCCCC2)C1=O (centres undefined)
Result: inactive

Task: Follow-up item: CN1C(=O)CC(=O)N(c2ccccc2)c2cc(Cl)ccc21
Result: inactive

Task: Follow-up item: Cc1nnc2n1-c1ccc(Cl)cc1C(c1ccccc1)=NC2
Result: inactive

Task: Follow-up item: CC(C)NC(C)C
Result: inactive

Task: Follow-up item: O=c1oc2ccccc2c(O)c1Cc1c(O)c2ccccc2oc1=O
Result: inactive

Task: Follow-up item: Cc1ncsc1CCCl
Result: inactive

Task: Follow-up item: O=C1c2ccccc2C(=O)C1C(=O)C(c1ccccc1)c1ccccc1
Result: inactive

###

- MEASUREMENT_DESCRIPTION: Primary qHTS for Vero E6 cytotoxicity: counterscreen for inhibitors of SARS-S pseudo-typed particle cell entry (AID 1479150)
- CONDITION: cell viability; series mostly up to 57.1 µM
Results filed as inconclusive are left out. Activity calls are given as the source filed them. Calls follow the shape of the full dose curve.
RECORDED_METRIC: outcome

Study these solved cases before continuing.
* O=C(O)Cc1cccc(-c2cc(CCCCCCc3ccc(O[C@H]4O[C@H](CO)[C@@H](O)[C@H](O)[C@@H]4O)c(-c4cccc(CC(=O)O)c4)c3)ccc2O[C@H]2O[C@H](CO)[C@@H](O)[C@H](O)[C@@H]2O)c1 | inactive [at 0.573 µM]
* NC[C@H]1O[C@H](O[C@H]2[C@H](O)[C@@H](O[C@H]3O[C@H](CO)[C@@H](O)[C@H](N)[C@H]3O)[C@H](N)C[C@@H]2N)[C@H](O)[C@@H](O)[C@@H]1O | inactive [at 5.34 µM]
* CN1CCN(CC(=O)N2c3ccccc3C(=O)Nc3cccnc32)CC1 | inactive [at 5.34 µM]
* O=C1[O][Bi][O]c2ccccc21 | inactive [at 0.573 µM]

Next:
Task: Reported outcome, molecule O=P(O)(O)C(Sc1ccc(Cl)cc1)P(=O)(O)O : ____
Result: inactive [at 0.573 µM]
